These measurements were taken from PubChem BioAssay (NCI).

Test: NCI Yeast Anticancer Drug Screen. Data for the rad50 strain (AID 155)
Settings: S. cerevisiae rad50 strain growth inhibition; at 50.0 µM (retest, dose inferred, filed as 5.0); stronger effect = higher value
Protocol: Growth inhibition of yeast strains with defined genetic alterations is measured as a screen for potential anti-cancer activity. Selected strains with alterations in DNA damage repair or cell cycle control were exposed to compounds and growth inhibition was measured relative to vehicle treated controls. The strain used in this assay is rad50
This is part of a sample that, as a whole, favours compounds with a hit. Of some 79,000 tested, about 15% had one in any assay.
Please assign a class to every record based on measured growth inhibition, with ranges I = under 40%, II = from 40% up to 90%, III = 90% and over

Class label required: CN(C(=O)c1ccc(Cl)cc1)C(=S)N1CCN(c2ccccc2)CC1
II
